test system: RPMI-8226 leukemia; test: NCI-60 one-dose screen, 48 h; details: 10 µM unless noted
This is part of a sample that, as a whole, favours compounds with a hit. Of some 83,000 tested, about 20% had one in any assay. Calls of active or inactive are those of the source. The calls were made as follows: active = growth percent below 10; inactive = the rest.
Outcomes: active, inactive

Compound: O=C(Cn1cc(CN2CCN(c3ccnc4cc(Cl)ccc34)CC2)nn1)Nc1cccc([N+](=O)[O-])c1
Cat: inactive

Compound: Nc1ccc(-c2ccc(N)c(Br)c2)cc1Br
Cat: inactive

Compound: CCN(C(=O)N1CCN(c2cc3c(cc2F)c(=O)c(C(=O)O)cn3C2CC2)CC1)c1nc(-c2ccccc2)cs1
Cat: inactive

Compound: Cc1cc(N2CCN(CC(=O)Nc3ccc4c(ccn4Cc4ccccc4)c3)CC2)nc(N2CCCCCC2)n1
Cat: inactive

Compound: COc1cc(NS(=O)(=O)C(C)C)cc(-c2cc(-c3ccc(N4CCNCC4)cc3)cnc2N)c1
Cat: inactive

Compound: O=c1ccc2nc(-c3ccccn3)nn(-c3ccccc3)c-2c1
Cat: inactive

Compound: CN(Cc1ccccc1)c1nc(Cl)c(C2CC(c3ccc4c(c3)OCO4)=NN2c2cc(Cl)cc(Cl)c2)s1 (stereo not drawn)
Cat: inactive

Compound: C=C1C(=O)O[C@H]2[C@H]1CC/C(CNS(=O)(=O)c1ccc3ccccc3c1)=C\CC[C@@]1(C)O[C@@H]21
Cat: active

Compound: CCCCCCCCCCCCCCCC(=O)O[C@@H]1[C@@H](O)[C@@H](O)C([C@H](NC(=O)[C@@H]2C[C@@H](CCC)CN2C)[C@H](C)Cl)O[C@@H]1SC (stereo partly drawn)
Cat: inactive

Compound: C[C@@H]1CC[C@@H]2[C@@H]1[C@H](OC(=O)/C=C/c1ccccc1)[C@]1(c3ccccc3)C[C@@H](NC(=O)CO)[C@@]2(C)O1
Cat: inactive

Compound: CN1CCN(C(=O)OCc2nc3c(N4CCOCC4)nc(Cl)nc3n2C)CC1
Cat: active

Compound: C=CCN1C=CC(=O)[C@H](O[Si](C)(C)C(C)(C)C)[C@@H]1/C=C/c1ccccc1
Cat: active

Compound: COc1ccc(Nc2nn3c(SCC(=O)c4ccc(C)cc4)nnc3s2)cc1
Cat: inactive

Compound: Cn1cc(-c2csc(-c3c[nH]c4ccc(F)cc34)n2)c2cnccc21
Cat: active

Compound: COc1nc2ccc(C)cc2cc1/C=[N+](\[O-])c1ccccc1
Cat: inactive

Compound: CCOC(=O)c1nc2c3ccccc3cnn2c1C(=O)c1ccc(OC)cc1
Cat: inactive

Compound: O=C1c2cccc3cccc(c23)C(=O)N1N1C(=O)c2cccc3c(N4CCNCC4)ccc(c23)C1=O
Cat: inactive

Compound: CCNC(=O)Oc1ccc(/C(=C(/C)Cc2ccc(OC)cc2)c2ccc(OCCN(CC)CC)cc2)cc1
Cat: active
